# experimental-target: Plasmodium falciparum phosphatidylserine decarboxylase (PfPSD) (Plasmodium falciparum, UniProt Q9GPP8)
# Sequence (Q9GPP8 41-315): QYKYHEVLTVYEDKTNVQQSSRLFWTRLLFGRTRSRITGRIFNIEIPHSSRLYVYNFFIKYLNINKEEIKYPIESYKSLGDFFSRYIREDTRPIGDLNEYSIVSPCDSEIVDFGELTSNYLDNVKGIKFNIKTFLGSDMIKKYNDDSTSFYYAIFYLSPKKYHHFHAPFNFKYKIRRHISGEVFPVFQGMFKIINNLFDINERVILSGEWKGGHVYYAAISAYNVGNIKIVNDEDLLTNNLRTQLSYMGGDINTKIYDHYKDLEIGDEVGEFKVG
# Sequence (Q9GPP8 316-362): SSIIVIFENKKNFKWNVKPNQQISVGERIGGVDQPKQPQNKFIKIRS
measured-quantity: IC50

Problem: In one line, give reported IC50 of the entry CCCc1ccc(Nc2ccnc3cc(Cl)ccc23)cc1 [7CPQA] .
Solution: 10 to 100 µM
